Hey, just so you know, these numbers are from PubChem BioAssay AID1159580.

experiment: chemical genetic growth profiling, strain panel (AID 1159580);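 further: tested at 20 µM; growth read once vehicle control cultures reached saturation at 30 °C; 1 = growth at the plate median or of vehicle wells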; conditions: S. cerevisiae deletion strains, growth OD, locus YNL183C, strain NPR1
Out of some 5,500 compounds screened, about 2,000 (36%) were called active. About 18% were inconclusive and are not listed. No stated cut-off is given here; in the data, active means normalized growth mostly below about 0.91 (no sharp cut-off); inconclusive means no clear call, values can overlap the other calls; inactive means mostly above about 0.92. This is one part of the list.
Choose the fitting class; nothing outside active, inactive is accepted.

compound=CC(=O)[O][Hg][c]1ccccc1 answer_label=active
compound=Cc1ccc2nc(-c3ccc([N+](=O)[O-])o3)oc(=O)c2c1 answer_label=active
compound=O=C(O)[C@H](O)[C@@](O)(Cc1ccc(O)cc1)C(=O)O answer_label=inactive
compound=CC(C)(C)c1ccc(C(=O)NNC(=S)Nc2ccc(Cl)cc2)cc1 answer_label=inactive
compound="CCCCCN(CCCCC)C(=O)C(CCC(=O)O)NC(=O)c1ccc(Cl)c(Cl)c1 (centres undefined)" answer_label=inactive
compound=O=C(c1cc2c(s1)-c1ccccc1CC2)N1CCN(Cc2ccccc2)CC1 answer_label=inactive
compound="CC[C@H]1CN2CCc3cc(OC)c(OC)cc3C2C[C@@H]1CC1NCCc2cc(OC)c(OC)cc21 (some centres undefined)" answer_label=inactive
compound=CCOC(=O)c1cnc2c(c(C)nn2C)c1Sc1nnc(SC)s1 answer_label=inactive

query: State the result this test recorded for `COc1cc(-c2coc3cc(O[C@@H]4O[C@H](CO)[C@@H](O)[C@H](O)[C@H]4O)c(OC)c(O)c3c2=O)cc(O)c1OC` .
result: inactive

query: Field: outcome | Entry: `COc1cc(/C=C/C(=O)N2CCC=CC2=O)cc(OC)c1OC`
result: inactive

query: Give the logged outcome of this assay for the following compound: COC1(C)CCC2OC2(C)CCC2C1CC2(C)C (centres undefined)
result: inactive

###

assay: chemical genetic growth profiling, strain panel (AID 1159580);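 further: tested at 20 µM; growth read once vehicle control cultures reached saturation at 30 °C; 1 = growth at the plate median or of vehicle wells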; conditions: S. cerevisiae deletion strains, growth OD, locus YPL106C, strain sse1, stronger effect = lower value
The whole screen tested about 5,500 compounds, of which about 2,000 (36%) were called active. About 18% were inconclusive and are not listed. The list shows a part of the results.
Recorded normalized growth by entry
Enter a number only.

compound=COc1ccc([C@H]2COc3c(ccc(O)c3OC)C2)c(OC)c1O measured_quantity="normalized growth" experimental_value=0.989
compound=CC[C@@H](CO)NC(=O)[C@@H]1C=C2c3cccc4[nH]cc(c34)C[C@H]2N(C)C1 measured_quantity="normalized growth" experimental_value=0.981
compound="O=c1[nH]cnc2c1ncn2C1O[C@H](CO)[C@@H](O)[C@H]1O (stereo partly drawn)" measured_quantity="normalized growth" experimental_value=1.02
compound=c1ccc([C@H]2CN3CCSC3=N2)cc1 measured_quantity="normalized growth" experimental_value=0.999
compound="C=C(C)[C@@H]1CC[C@]2(CO)CC[C@]3(C)[C@H](CCC4[C@@]5(C)CC[C@H](O)C(C)(C)C5CC[C@]43C)C12 (stereo partly drawn)" measured_quantity="normalized growth" experimental_value=1

Summary for this compound, COc1c2c(cc3c1OCO3)C13C=C[C@H](OC)CC1N(C2)CC3O (stereo partly drawn) : normalized growth is 0.984

`COc1cc(/C=C/C(=O)N2CCC=CC2=O)cc(OC)c1OC` has a reported normalized growth of 1.01

In plain terms, `CC1(C)S[C@@H]2[C@H](NC(=O)Cc3ccccc3)C(=O)N2[C@H]1C(=O)O` has a documented normalized growth of 1.02
